Experiment: recombinant barcode read abundance after kanamycin selection (control-corrected) (log10(CPM+1)); higher = more efficient recombination; sequences stand for … in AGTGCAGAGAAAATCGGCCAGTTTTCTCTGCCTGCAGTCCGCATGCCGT…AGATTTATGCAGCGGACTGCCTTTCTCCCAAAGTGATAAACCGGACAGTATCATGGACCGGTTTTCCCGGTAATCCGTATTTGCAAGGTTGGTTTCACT; site = the 11-nt target;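 further: IS621 recombinase and bridge RNA in Escherichia coli cells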
Decision: recombinant barcode read abundance (log10) compared against 0.2; not below it gives true, below it gives false.

{"columns": ["Sequence data", "Answer label"],
 "data": [
  ["TCCACATCTTGGGTTCTAACCTGTTGCCT (site TCCACACCTAG)", "true"],
  ["AGAAGTCCTTGGGTTCTAACCTGTTGCGG (site AGAAGTCCTCT)", "true"],
  ["GAGAGTCCTTGGGTTCTAACCTGTTGCCA (site GAGAGTCCTTG)", "true"],
  ["TCCTACCCTTGGGTTCTAACCTGTTGCCT (site TACTACCCTAG)", "false"],
  ["CTCGTGACTTGGGTTCTAACCTGTTGCCT (site CTCGTAACTAG)", "true"],
  ["CTTCGAGCTTGGGTTCTAACCTGTTGCGG (site CTTCGAGCTCG)", "false"],
  ["TAAGTGTCTTGGGTTCTAACCTGTTGCCT (site TATGTGTCTAG)", "true"],
  ["GAGCATACTTGGGTTCTAACCTGTTGCCT (site GAGCATACTAG)", "true"],
  ["TAATTGCCTTGGGTTCTAACCTGTTGCCT (site TACTTGCCTAG)", "true"],
  ["AAGCGTCCTTGGGTTCTAACCTGTTGCCT (site AAGCGTTCTAG)", "false"],
  ["AACAATACTTGGGTTCTAACCTGTTGCCT (site AACAATACTAG)", "true"],
  ["TGGAGCCCTTGGGTTCTAACCTGTTGCAC (site TGGAGCCCTCT)", "false"],
  ["TGGTAACCTTGGGTTCTAACCTGTTGCCT (site TGGTAACCTAG)", "true"],
  ["ATGTGCACTTGGGTTCTAACCTGTTGCAG (site ATGTGCACTCT)", "true"],
  ["GCCAGGGCTTGGGTTCTAACCTGTTGCCG (site GCCAGGGCTCG)", "true"],
  ["ACACGAGCTTGGGTTCTAACCTGTTGCAG (site ACACGAGCTCT)", "true"],
  ["CTCGGATCTTGGGTTCTAACCTGTTGCCT (site CTCGGAGCTAG)", "false"],
  ["TTACGCTCTTGGGTTCTAACCTGTTGCTA (site GGTTATCCTCC)", "false"],
  ["TAGTCCTCTTGGGTTCTAACCTGTTGCTG (site TAGTCCTCTGA)", "false"],
  ["TAACTAGCTTGGGTTCTAACCTGTTGCTA (site GTGTATACTAT)", "true"],
  ["CTAGAAGCTTGGGTTCTAACCTGTTGCGG (site CTAGAAGCTCC)", "true"]
]}
